ASSAY_OVERVIEW: Bioavailability in dog(iv: 1 mg/kg)
Assay type: ADME, organism-based, Canis lupus familiaris
CONDITION_INFO: in vivo
OBSERVED_PROPERTY: bioavailability
# do not omit the unit; it follows the number

Reported bioavailability, molecule COC(=O)C1=C(C)N=C(C)N(CCCCCN2CCC(c3ccc(C)cc3)(c3ccccc3C)CC2)C1c1ccc(F)c(F)c1 (stereo unspecified) : ____ 8%

* * *

Would you kindly list Fold selective for each of these compounds?
ASSAY_OVERVIEW: Selectivity against alpha-1a receptor over alpha-2a,b,c adrenoceptors

COMPOUND	OBSERVED_PROPERTY	RESULT
COC(=O)C1=C(C)N=C(C)N(CCC[C@@H](C)CN2CCN(c3ccccc3C(N)=O)CC2)C1c1ccc(F)c(F)c1 (single isomer, unassigned; (+))	Fold selective	< 10
COC(=O)C1=C(C)N=C(C)N(CCCCCN2CCN(c3ccccc3C(=O)OC)CC2)C1c1ccc(F)c(F)c1 (configuration not stated)	Fold selective	> 100
COC(=O)C1=C(C)N=C(C)N(CCC[C@H](C)CN2CCC(C#N)(c3ccccc3)CC2)C1c1ccc(F)c(F)c1 (some centres not stated)	Fold selective	> 120
COC(=O)C1=C(C)N=C(C)N(Cc2cccc(CN3CCC(C(=O)OC)(c4ccccc4)CC3)c2)C1c1ccc(F)c(F)c1 (configuration not stated)	Fold selective	> 130
COC(=O)C1=C(C)N=C(C)N(CCCCN2CCC(C(=O)OC)(c3ccccc3)CC2)C1c1ccc(F)c(F)c1 (configuration not stated)	Fold selective	< 80

Quick one: give me Fold selective for each item below, same order please.
1. CNC(=O)C1=C(C)N=C(C)N(CCCCCN2CCC(C(=O)OC)(c3ccccc3)CC2)C1c1ccc(F)cc1F (configuration not stated)
2. COCC1=C(C(=O)OC)C(c2ccc(F)c(F)c2)N(CCCCCN2CCC(C#N)(c3ccccc3)CC2)C(C)=N1 (configuration not stated)

1. < 80
2. > 4000

* * *

ASSAY_TARGET: Alpha-1B adrenergic receptor (Homo sapiens)
Sequence (P35368 whole entry): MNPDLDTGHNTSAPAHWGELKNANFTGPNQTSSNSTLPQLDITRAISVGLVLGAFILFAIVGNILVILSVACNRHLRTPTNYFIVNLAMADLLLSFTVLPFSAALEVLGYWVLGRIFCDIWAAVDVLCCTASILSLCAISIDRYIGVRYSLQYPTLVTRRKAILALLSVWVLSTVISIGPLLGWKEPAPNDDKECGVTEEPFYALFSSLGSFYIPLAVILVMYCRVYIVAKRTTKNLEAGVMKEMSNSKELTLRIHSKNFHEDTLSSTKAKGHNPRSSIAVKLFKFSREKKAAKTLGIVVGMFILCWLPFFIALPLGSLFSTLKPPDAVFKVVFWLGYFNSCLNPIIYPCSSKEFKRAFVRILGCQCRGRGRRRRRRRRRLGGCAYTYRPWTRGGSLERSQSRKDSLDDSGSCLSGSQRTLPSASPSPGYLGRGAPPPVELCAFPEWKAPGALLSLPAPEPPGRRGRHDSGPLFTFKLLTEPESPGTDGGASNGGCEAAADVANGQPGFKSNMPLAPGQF
ASSAY_OVERVIEW: Binding affinity against Alpha-1B adrenergic receptor (recombinant human receptor) using [3H]prazosin.
OBSERVED_PROPERTY: pKi
Numbers only, as −log10 of the molar value.

Here's what some known entries look like.
COMPOUND	pKi
COC(=O)C1=C(C)N=C(C)N(CCCCCN2CCN(c3ccccc3C(N)=O)CC2)C1c1ccc(F)c(F)c1 (stereo unspecified)	6.62
COCC1=C(C(=O)OC)C(c2ccc(F)c(F)c2)N(CCCCCN2CCC(C#N)(c3ccccc3)CC2)C(C)=N1 (stereo unspecified)	6.40
COC(=O)C1=C(C)N=C(C)N(CCCCCN2CCC(c3ccc(C)cc3)(c3ccccc3C)CC2)C1c1ccc(F)c(F)c1 (stereo unspecified)	6.60
CNC(=O)C1=C(C)N=C(C)N(CCCCCN2CCC(C(=O)OC)(c3ccccc3)CC2)C1c1ccc(F)cc1F (stereo unspecified)	6.06
COC(=O)C1=C(C)N=C(C)N(CCCCCN2CCC(C(=O)OC)(c3ccccc3)CC2)C1c1ccc(F)cc1F (stereo unspecified)	6.80
COC(=O)C1=C(C)N=C(C)N(CCCCCN2CCN(c3ccccc3C(=O)OC)CC2)C1c1ccc(F)c(F)c1 (stereo unspecified)	7.47
COC(=O)C1=C(C)N=C(C)N(CCC[C@H](C)CN2CCC(C#N)(c3ccccc3)CC2)C1c1ccc(F)c(F)c1 (stereo partly specified)	6.32
COC(=O)C1=C(C)N=C(C)N(Cc2cccc(CN3CCC(C(=O)OC)(c4ccccc4)CC3)c2)C1c1ccc(F)c(F)c1 (stereo unspecified)	6.49

Quick one: give me pKi for each item below, same order please.
1. COC(=O)C1=C(C)N=C(C)N(CCC[C@H](C)CN2CCN(c3ccccc3C(N)=O)CC2)C1c1ccc(F)c(F)c1 (stereo partly specified)
2. COC(=O)C1=C(C)N=C(C)N(CCC[C@@H](C)CN2CCN(c3ccccc3C(N)=O)CC2)C1c1ccc(F)c(F)c1 (single isomer, unassigned; (+))
3. COC(=O)C1=C(C)N=C(C)N(CCCCCN2CCC(c3ccccc3OC)CC2)C1c1ccc(F)c(F)c1 (stereo unspecified)
4. COC(=O)C1=C(C)N=C(C)N(CCCCCN2CCC(c3ccccc3)CC2)C1c1ccc(F)c(F)c1 (stereo unspecified)
5. COC(=O)C1=C(C)N=C(C)N(CCCCN2CCC(C(=O)OC)(c3ccccc3)CC2)C1c1ccc(F)c(F)c1 (stereo unspecified)
6. COC(=O)C1=C(C)N=C(C)N(CCCCCN2CCC(c3ccccc3C(F)(F)F)CC2)C1c1ccc(F)c(F)c1 (stereo unspecified)

6.09
5.82
6.85
7.03
6.36
6.30

Quick one: give me pKi for each item below, same order please.
1. COC(=O)C1=C(C)N=C(C)N(CCC[C@H](C)CN2CCC(C(=O)OC)(c3ccccc3)CC2)C1c1ccc(F)c(F)c1 (single isomer, unassigned; (+))
2. COC(=O)C1(c2ccccc2)CCN(CCCCCN2C(C)=NC(C)=C(C(N)=O)C2c2ccc(F)cc2F)CC1 (stereo unspecified)
3. COC(=O)C1=C(C)N=C(C)N(CCCCCN2CCC(C#N)(c3ccccc3)CC2)C1c1ccc(F)c(F)c1 (stereo unspecified)

[6.37, 6.39, 6.31]

* * *

ASSAY_TARGET: Alpha-1A adrenergic receptor (Homo sapiens)
Sequence (P35348 whole entry): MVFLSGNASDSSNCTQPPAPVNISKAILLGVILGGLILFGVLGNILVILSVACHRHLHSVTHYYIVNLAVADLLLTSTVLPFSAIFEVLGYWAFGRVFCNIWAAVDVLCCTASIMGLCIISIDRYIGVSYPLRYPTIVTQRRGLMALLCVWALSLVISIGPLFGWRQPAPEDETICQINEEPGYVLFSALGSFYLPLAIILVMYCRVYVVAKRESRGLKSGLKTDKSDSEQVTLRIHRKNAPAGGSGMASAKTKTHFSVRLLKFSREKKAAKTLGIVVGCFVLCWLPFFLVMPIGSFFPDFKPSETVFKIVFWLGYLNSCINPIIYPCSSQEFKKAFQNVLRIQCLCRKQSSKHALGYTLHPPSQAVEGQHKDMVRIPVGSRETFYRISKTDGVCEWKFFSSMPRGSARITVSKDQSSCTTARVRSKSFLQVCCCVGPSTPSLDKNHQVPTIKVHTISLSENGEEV
ASSAY_OVERVIEW: Binding affinity against Alpha-1A adrenergic receptor (recombinant human receptor) using [3H]prazosin.
Would you kindly list pKi for each of these molecules?
Give bare numbers, as −log10 of the molar value.

Here's what some known entries look like.
MOLECULE	OBSERVED_PROPERTY	NUMERIC_RESULT
COC(=O)C1=C(C)N=C(C)N(CCC[C@@H](C)CN2CCN(c3ccccc3C(N)=O)CC2)C1c1ccc(F)c(F)c1 (single isomer, unassigned; (+))	pKi	7.70
COC(=O)C1=C(C)N=C(C)N(CCCCCN2CCN(c3ccccc3C(=O)OC)CC2)C1c1ccc(F)c(F)c1 (stereo not drawn)	pKi	9.30
COC(=O)C1(c2ccccc2)CCN(CCCCCN2C(C)=NC(C)=C(C(N)=O)C2c2ccc(F)cc2F)CC1 (stereo not drawn)	pKi	8.38
COCC1=C(C(=O)OC)C(c2ccc(F)c(F)c2)N(CCCCCN2CCC(C#N)(c3ccccc3)CC2)C(C)=N1 (stereo not drawn)	pKi	9.40
COC(=O)C1=C(C)N=C(C)N(CCCCCN2CCC(c3ccccc3)CC2)C1c1ccc(F)c(F)c1 (stereo not drawn)	pKi	9.40

Quick one: give me pKi for each item below, same order please.
1. COC(=O)C1=C(C)N=C(C)N(CCC[C@@H](C)CN2CCC(C#N)(c3ccccc3)CC2)C1c1ccc(F)c(F)c1 (stereo partly drawn)
2. COC(=O)C1=C(C)N=C(C)N(CCCCCN2CCC(c3ccccc3C(F)(F)F)CC2)C1c1ccc(F)c(F)c1 (stereo not drawn)
3. COC(=O)C1=C(C)N=C(C)N(CCCCCN2CCC(C#N)(c3ccccc3)CC2)C1c1ccc(F)c(F)c1 (stereo not drawn)

1: 7.66; 2: 8.96; 3: 9.00
